# System: Wnt pathway (TCF-dependent transcription in HEK293 luciferase reporter cell line with ER-DSH construct)
# assay_name: Cellular assay for Wnt pathway activity (luciferase reporter)
# Assay type: cell-based
# settings: Homo sapiens; Wnt pathway inhibition, HEK293 luciferase reporter cells (ER-DSH, TCF promoter), 24 hours incubation, estrogen-induced
pIC50: −log10 of the molar value.
readout_label: pIC50

# pIC50 lookup, item CC(=O)N(C)CCN(C)c1cncc(Oc2cccc(N(C)C)c2)n1
5.00 to 6.00

Same again, this time with CC(=O)N(C)CCCc1cnc(N)c(Oc2ccc(F)cc2)c1
5.00 to 6.00

And COc1ccc(Oc2cncc(N3CCCC(CNC(=O)OC(C)(C)C)C3)n2)cc1 (centres unmarked) ?
5.00 to 6.00

Query COc1ccc(-c2ccc(Oc3cncc(N(C)CCN(C)C(C)=O)n3)cc2)nc1 next
> 6.70

Moving on to CCNC(=O)N(C)CCN(C)c1cncc(Oc2ccc(OC)cc2)n1
5.00 to 6.00
